# credit: patent US5789434A

# Target: MMP-2 (Homo sapiens, UniProt P08253)
# Sequence (P08253 110-660): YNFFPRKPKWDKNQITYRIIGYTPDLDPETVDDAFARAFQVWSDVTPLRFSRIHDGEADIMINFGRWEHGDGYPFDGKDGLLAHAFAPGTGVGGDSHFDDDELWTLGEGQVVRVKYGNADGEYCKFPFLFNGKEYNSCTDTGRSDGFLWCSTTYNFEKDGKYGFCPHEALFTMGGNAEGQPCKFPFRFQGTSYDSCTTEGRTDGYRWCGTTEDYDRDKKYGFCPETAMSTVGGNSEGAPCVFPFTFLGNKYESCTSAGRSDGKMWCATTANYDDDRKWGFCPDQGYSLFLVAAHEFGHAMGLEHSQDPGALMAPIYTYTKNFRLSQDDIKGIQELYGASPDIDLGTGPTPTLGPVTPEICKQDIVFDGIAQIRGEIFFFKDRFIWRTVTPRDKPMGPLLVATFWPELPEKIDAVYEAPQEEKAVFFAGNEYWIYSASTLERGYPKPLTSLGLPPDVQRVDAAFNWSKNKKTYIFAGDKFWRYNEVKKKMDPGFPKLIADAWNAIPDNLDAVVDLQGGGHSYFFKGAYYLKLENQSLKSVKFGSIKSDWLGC
# Test: Automated MMP Profiling Assay, MMP-2 fluorogenic
# Assay type: biochemical
# Details: 96-well automated, P218; read-out: MMP-2 Fluorogenic IC50 (profiling)
pIC50: −log10 of the molar value.
Endpoint name: pIC50

Compound: CCCCCOc1ccc(-c2ccc(C(=O)CC(CCN3C(=O)c4ccccc4C3=O)C(=O)O)cc2)cc1 (centres unmarked)
Comparison sign: =
Result value: 8.64

Compound: O=C(CC(CCN1C(=O)c2cc3c(cc2C1=O)OCO3)C(=O)O)c1ccc(-c2ccc(Cl)cc2)cc1 (centres unmarked)
Comparison sign: =
Result value: 7.51

Compound: O=C(O)[C@@H]1[C@@H](CN2C(=O)c3ccccc3C2=O)OC[C@H]1C(=O)c1ccc(-c2ccc(Cl)cc2)cc1 (relative stereo)
Comparison sign: =
Result value: 8.19

Compound: O=C(CC(CCCc1ccccc1)C(=O)O)c1ccc(-c2ccc(OCc3cccc(Cl)c3)cc2)cc1 (centres unmarked)
Comparison sign: =
Result value: 7.37

Compound: CC(C)(C)CC(=O)Nc1ccc(-c2ccc(C(=O)CC(CCc3ccccc3)C(=O)O)cc2)cc1 (centres unmarked)
Comparison sign: =
Result value: 5.93

Compound: Cc1ccc(/C=C/[C@@H]2CC[C@H](C(=O)c3ccc(-c4ccc(Cl)cc4)cc3)[C@H]2C(=O)O)cc1 (relative stereo)
Comparison sign: >
Result value: 5.30

Compound: O=C(O)[C@H]1[C@H](CON2C(=O)c3ccccc3C2=O)CC[C@@H]1C(=O)c1ccc(-c2ccc(Cl)cc2)cc1 (relative stereo)
Comparison sign: =
Result value: 8.20

Compound: O=C(CC(CCCc1ccccc1)C(=O)O)c1ccc(-c2ccc(/C=C\c3ccccc3)cc2)cc1 (centres unmarked)
Comparison sign: =
Result value: 6.91

Compound: O=C(CC(CCN1C(=O)c2cccc3cccc(c23)C1=O)C(=O)O)c1ccc(-c2ccc(Cl)cc2)cc1 (centres unmarked)
Comparison sign: =
Result value: 7.10

Compound: O=C(O)[C@@H]1[C@@H](C(=O)c2ccc(-c3ccc(Cl)cc3)cc2)CC[C@H]1Sc1ccccc1 [Example 296]
Comparison sign: =
Result value: 8.19

Compound: O=C(CC(CCCc1ccccc1)C(=O)O)c1ccc(-c2ccc(OCc3ccc(C(F)(F)F)cc3)cc2)cc1 (centres unmarked)
Comparison sign: =
Result value: 7.20

---

# Target: MMP-9 (Homo sapiens)
# Construct: from tissue; host or cells: human polymorphonuclear leukocytes (PMN) from whole blood (New York Blood Center), PMA-stimulated supernatant
# Test: Thiopeptilide MMP-9 Inhibition Assay
# Format: biochemical
# Details: pH 6.5; x (n) = average of n determinations; read-out: MMP-9: Thiopep. IC50
Endpoint name: log10 IC50 (log10 of the value in nM)

Molecule: COc1ccc(-c2ccc(C(=O)CC(CCCc3ccccc3)C(=O)O)cc2)cc1 (stereo not shown) [Example 73]
Result value: 2.78

Molecule: CC1=CC[C@@H](C(=O)c2ccc(-c3ccc(Cl)cc3)cc2)[C@H](C(=O)O)C1 (relative stereo) [Example 329]
Result value: 3.90

Molecule: N#Cc1ccc(-c2ccc(C(=O)CC(CCc3ccccc3)C(=O)O)cc2)cc1 (stereo not shown) [Example 125]
Result value: 3.26

Molecule: COc1ccc(CCCC(CC(=O)c2ccc(-c3ccc(Cl)cc3)cc2)C(=O)O)cc1 (stereo not shown) [Example 186]
Result value: 2.58

Molecule: CC(C)(C)C(=O)SCC(CC(=O)c1ccc(-c2ccc(Cl)cc2)cc1)C(=O)O (stereo not shown) [Example 193]
Result value: 3.39

Molecule: Cc1ccccc1S[C@H]1CC[C@H](C(=O)c2ccc(-c3ccc(Cl)cc3)cc2)[C@H]1C(=O)O (relative stereo) [Example 306]
Result value: 2.74

Molecule: O=C(CC(CSc1ccncc1)C(=O)O)c1ccc(-c2ccc(Cl)cc2)cc1 (stereo not shown) [Example 222]
Result value: 3.26

Molecule: CCc1ccc(SCC(CC(=O)c2ccc(-c3ccc(Cl)cc3)cc2)C(=O)O)cc1 (stereo not shown) [Example 212]
Result value: 2.59

Molecule: CCOc1ccc(-c2ccc(C(=O)CC(CCCc3ccccc3)C(=O)O)cc2)cc1 (stereo not shown) [Example 75]
Result value: 1.91

Molecule: O=C(CC(CCCc1ccccc1)C(=O)O)c1ccc(-c2ccsc2)cc1 (stereo not shown) [Example 76]
Result value: 3.26

Molecule: O=C(CC(CCCN1C(=O)c2ccccc2C1=O)C(=O)O)c1ccc(-c2ccc(Cl)cc2)cc1 (stereo not shown) [Example 262]
Result value: 1.88

Molecule: O=C(CC(CCCc1ccccc1)C(=O)O)c1ccc(-c2ccc(OCCCl)cc2)cc1 (stereo not shown) [Example 52]
Result value: 1.57

Molecule: CC(C)Oc1ccc(-c2ccc(C(=O)CC(CCCc3ccccc3)C(=O)O)cc2)cc1 (stereo not shown) [Example 91]
Result value: 2.85

Molecule: O=C(CC(CCCc1ccccc1)C(=O)O)c1ccc(-c2ccc(Cl)cc2)s1 (stereo not shown) [Example 349]
Result value: 2.52

Molecule: CSc1ccc(-c2ccc(C(=O)CC(CCCc3ccccc3)C(=O)O)cc2)cc1 (stereo not shown) [Example 51]
Result value: 2.00

Molecule: COC(=O)c1ccccc1SCC(CC(=O)c1ccc(-c2ccc(Cl)cc2)cc1)C(=O)O (stereo not shown) [Example 244]
Result value: 2.78

Molecule: COc1ccc(SCC(CC(=O)c2ccc(-c3ccc(Cl)cc3)cc2)C(=O)O)cc1OC (stereo not shown) [Example 215]
Result value: 3.08

Molecule: CC(C)(CC(=O)O)CC(=O)c1ccc(-c2ccc(Cl)cc2)cc1 [Example 334]
Result value: 3.78

Molecule: CC(C)CC(CCC(=O)O)C(=O)c1ccc(-c2ccc(Cl)cc2)cc1 (stereo not shown) [Example 342]
Result value: 2.85

Molecule: CCCCCC(CC(=O)c1ccc(-c2ccc(Cl)cc2)cc1)C(=O)O (stereo not shown) [Example 26]
Result value: 3.63

Molecule: CC1=C(C)C[C@@H](C(=O)c2ccc(-c3ccc(Cl)cc3)cc2)[C@H](C(=O)O)C1 (relative stereo) [Example 327]
Result value: 4.08

Molecule: O=C(O)CCC(CCCc1ccccc1)C(=O)c1ccc(-c2ccc(Cl)cc2)cc1 (stereo not shown) [Example 343]
Result value: 2.83

Molecule: NCc1ccc(-c2ccc(C(=O)CC(CCCc3ccccc3)C(=O)O)cc2)cc1 (stereo not shown) [Example 59]
Result value: 3.30

Molecule: C=Cc1ccc(-c2ccc(C(=O)CC(CCCc3ccccc3)C(=O)O)cc2)cc1 (stereo not shown) [Example 55]
Result value: 2.04

Molecule: O=C(O)CC(CSc1ccccc1)C(=O)c1ccc(-c2ccc(Cl)cc2)cc1 (stereo not shown) [Example 257]
Result value: 3.32

---

# Target: MMP-3 (Homo sapiens, UniProt P08254)
# Construct: Truncated Prostromelysin-257 was expressed in a soluble form in E.coli; made in house; host or cells: E. coli
# Sequence (P08254 100-274 limits assumed): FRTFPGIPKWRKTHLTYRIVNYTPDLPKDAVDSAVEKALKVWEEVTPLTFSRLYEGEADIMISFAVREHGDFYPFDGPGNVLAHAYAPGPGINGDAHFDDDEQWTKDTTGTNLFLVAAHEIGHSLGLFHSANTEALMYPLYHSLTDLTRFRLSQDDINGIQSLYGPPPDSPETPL
# Test: Automated MMP Profiling Assay, MMP-3 fluorogenic
# Format: biochemical
# Details: 96-well automated, P218

Molecule: CCOc1ccc(-c2ccc(C(=O)CC(CCc3ccccc3)C(=O)O)cc2)cc1 (stereo not shown)
Target: MMP-3 (Homo sapiens, UniProt P08254)
IC50, nM: 126

Molecule: O=C(CC(CCCc1ccccc1)C(=O)O)c1ccc(-c2ccc(OCC3CC3)cc2)cc1 (stereo not shown)
Target: MMP-3 (Homo sapiens, UniProt P08254)
IC50, nM: 153

Molecule: O=C(c1ccc(-c2ccc(Cl)cc2)cc1)[C@H]1CCN(C(=O)Nc2ccccc2)[C@@H]1C(=O)O
Target: MMP-3 (Homo sapiens, UniProt P08254)
IC50, nM: 119

Molecule: O=C(O)[C@H]1[C@H](CSc2nc3ccccc3s2)CC[C@@H]1C(=O)c1ccc(-c2ccc(Cl)cc2)cc1 (relative stereo)
Target: MMP-3 (Homo sapiens, UniProt P08254)
IC50, nM: 116

---

// reported inhibition at 5 µM for each item listed
# Target: MMP-9 (Homo sapiens, UniProt P14780)
# Construct: from tissue; host or cells: human polymorphonuclear leukocytes (PMN) from whole blood (New York Blood Center), PMA-stimulated supernatant
# Sequence (P14780 107-707 limits assumed): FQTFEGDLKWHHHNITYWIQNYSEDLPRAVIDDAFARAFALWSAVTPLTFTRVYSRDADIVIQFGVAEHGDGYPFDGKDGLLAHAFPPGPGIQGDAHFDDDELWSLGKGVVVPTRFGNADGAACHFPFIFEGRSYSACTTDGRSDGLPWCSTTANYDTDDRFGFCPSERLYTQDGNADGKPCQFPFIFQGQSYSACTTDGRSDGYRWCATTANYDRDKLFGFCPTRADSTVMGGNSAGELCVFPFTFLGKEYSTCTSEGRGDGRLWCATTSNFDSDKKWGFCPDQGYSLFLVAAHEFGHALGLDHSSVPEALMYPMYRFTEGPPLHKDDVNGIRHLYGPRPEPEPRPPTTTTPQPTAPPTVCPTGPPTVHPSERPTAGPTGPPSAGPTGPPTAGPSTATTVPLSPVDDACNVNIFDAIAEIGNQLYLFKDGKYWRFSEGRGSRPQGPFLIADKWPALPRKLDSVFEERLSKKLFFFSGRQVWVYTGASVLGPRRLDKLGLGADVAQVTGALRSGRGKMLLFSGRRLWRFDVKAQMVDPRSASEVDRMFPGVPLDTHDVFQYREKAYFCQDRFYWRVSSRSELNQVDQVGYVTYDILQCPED
# Test: Thiopeptilide MMP-9 Inhibition Assay
# Assay type: biochemical
# Details: at 5 μM; read-out: MMP-9: Thiopep. % inhibition
Endpoint name: inhibition at 5 µM (%)

Compound: O=C(O)CCC(O)c1ccc(-c2ccccc2F)cc1 (stereo not shown) [Example 39, reference compound]
Endpoint name: inhibition at 5 µM
Result value: 4
//
Compound: CC(C)(C)c1ccc(SCC(CC(=O)c2ccc(-c3ccc(Cl)cc3)cc2)C(=O)O)cc1 (stereo not shown)
Endpoint name: inhibition at 5 µM
Result value: 41
//
Compound: O=C(O)CCC(=O)c1ccc(-c2ccccc2F)cc1 [Example 9, reference compound]
Endpoint name: inhibition at 5 µM
Result value: 3
//
Compound: CC(C)CC(CCC(=O)c1ccc(-c2ccc(Cl)cc2)cc1)C(=O)O (stereo not shown)
Endpoint name: inhibition at 5 µM
Result value: 32
//
Compound: O=C(CC(CCCc1ccccc1)C(=O)O)c1ccc(-c2ccc(Cl)cc2Cl)cc1 (stereo not shown)
Endpoint name: inhibition at 5 µM
Result value: 7
//
Compound: O=C(O)/C=C/C(=O)c1ccc(Oc2ccc(Cl)cc2)cc1 [Example 30, reference compound]
Endpoint name: inhibition at 5 µM
Result value: 25
//
Compound: CC(C)(C)OC(=O)NCc1ccc(-c2ccc(C(=O)CC(CCCc3ccccc3)C(=O)O)cc2)cc1 (stereo not shown)
Endpoint name: inhibition at 5 µM
Result value: 13
//
Compound: CC(=O)SC(CC(=O)c1ccc(Oc2ccc(Cl)cc2)cc1)C(=O)O (stereo not shown) [Example 254, reference compound]
Endpoint name: inhibition at 5 µM
Result value: 27
//
Compound: CC(C)CC(CC(=O)c1ccc(-c2ccccc2F)cc1)C(=O)O (stereo not shown)
Endpoint name: inhibition at 5 µM
Result value: 0
//
Compound: C#CCC(CC(=O)c1ccc(-c2ccc(Cl)cc2)cc1)C(=O)O (stereo not shown)
Endpoint name: inhibition at 5 µM
Result value: 45
//
Compound: O=C(CC(CCCc1ccccc1)C(=O)O)c1ccc(-c2cc(Cl)cc(Cl)c2)cc1 (stereo not shown)
Endpoint name: inhibition at 5 µM
Result value: 11
//
Compound: CC(C)CC(CC(=O)c1ccc(-c2ccc(F)cc2)cc1)C(=O)O (stereo not shown)
Endpoint name: inhibition at 5 µM
Result value: 0
//
Compound: CC(C)CC(CC(=O)c1ccc(-c2ccccc2)cc1)C(=O)O (stereo not shown)
Endpoint name: inhibition at 5 µM
Result value: 3
//
Compound: CNC(=O)[C@@H]1CCCN1C(=O)C(CC(=O)c1ccc(-c2ccc(Cl)cc2)cc1)CC(C)C (stereo partly shown)
Endpoint name: inhibition at 5 µM
Result value: 34
//
Compound: O=C(O)CCC(=O)c1ccc(-c2ccc(F)cc2F)cc1 [Example 11, reference compound]
Endpoint name: inhibition at 5 µM
Result value: 0
//
Compound: CC(C)(C)C(=O)SCC(CC(=O)c1ccc(-c2ccc(Cl)cc2)cc1)C(=O)O (single isomer, unassigned)
Endpoint name: inhibition at 5 µM
Result value: 20
